Reported values of IC50 for individual entries
# targetOfAssay: IgE-Tb / FcεRIα-Y131A-AF488 (Homo sapiens, UniProt P01854)
# Sequence (P01854 1-427 limits assumed, stated change not applied): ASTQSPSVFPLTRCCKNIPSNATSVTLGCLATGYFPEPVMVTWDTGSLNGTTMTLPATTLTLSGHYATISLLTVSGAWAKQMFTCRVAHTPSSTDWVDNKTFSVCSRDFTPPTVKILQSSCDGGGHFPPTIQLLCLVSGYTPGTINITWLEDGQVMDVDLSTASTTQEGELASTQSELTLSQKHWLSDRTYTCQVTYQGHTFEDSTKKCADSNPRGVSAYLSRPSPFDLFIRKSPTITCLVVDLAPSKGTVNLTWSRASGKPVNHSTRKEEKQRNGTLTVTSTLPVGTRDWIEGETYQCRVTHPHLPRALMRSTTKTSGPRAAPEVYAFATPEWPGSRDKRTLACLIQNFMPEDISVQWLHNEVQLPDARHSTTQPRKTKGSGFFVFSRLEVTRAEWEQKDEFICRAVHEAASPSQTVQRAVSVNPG
# assayOverview: IgE-Tb / FcεRIα-Y131A-AF488 FRET assay (protocol for examples 1 to 233)
# measurementConditions: examples 1 to 233: 5 nM IgE-Tb, 25 nM FcεRIα-Y131A-AF488, incubated 2 hours at room temperature; read-out: Y131A FRET IC50 range

Solved entries (count: 4):
compound | targetOfAssay | IC50
Cc1ccc(NC(=O)NCC2(O)CCc3sc(NC(=O)C4CC4)c(C(=O)NCC4CC4)c3C2)cc1 (stereo not shown) [Example 70] | IgE-Tb / FcεRIα-Y131A-AF488 (Homo sapiens, UniProt P01854) | 1000 to 10000 nM
O=C(NCC1CC1)c1c(NC(=O)C2CC2)sc2c1CC(C(=O)Nc1cccnc1)CC2 (stereo not shown) [Example 54] | IgE-Tb / FcεRIα-Y131A-AF488 (Homo sapiens, UniProt P01854) | < 1000 nM
COC(=O)c1cc(Nc2nncn2[C@H]2CCc3sc(NC(=O)C4CC4)c(C(=O)NCC4CC4)c3C2)n(C)n1 [Example 231] | IgE-Tb / FcεRIα-Y131A-AF488 (Homo sapiens, UniProt P01854) | < 1000 nM
CCOC(=O)c1c(NC(=O)C2CC2)sc2c1CCCC2O (stereo not shown) [Example 103] | IgE-Tb / FcεRIα-Y131A-AF488 (Homo sapiens, UniProt P01854) | 10000 to 50000 nM

Shifting focus to the compound that follows.
Record O=C(NCC1CC1)c1c(NC(=O)C2CC2)sc2c1CC(Nc1nc3ccccc3o1)CC2 (stereo not shown) [Example 183] . Reported IC50: < 1000 nM

Sourced from patent US12018021B2
